biological target: T1, mouse vascular endothelial growth factor receptor-2 Fc chimera (Flk-1-Fc) (mouse, UniProt P35918 20-762); test: radioactive equilibrium binding assay, 1 nM Flk-1-Fc, % of input bound
T1 construct: Bought from R&D Systems; also called mouse VEGFR-2; not shown: Fc part of the purchased chimera, not specified
T1 sequence (P35918 20-762, change not shown): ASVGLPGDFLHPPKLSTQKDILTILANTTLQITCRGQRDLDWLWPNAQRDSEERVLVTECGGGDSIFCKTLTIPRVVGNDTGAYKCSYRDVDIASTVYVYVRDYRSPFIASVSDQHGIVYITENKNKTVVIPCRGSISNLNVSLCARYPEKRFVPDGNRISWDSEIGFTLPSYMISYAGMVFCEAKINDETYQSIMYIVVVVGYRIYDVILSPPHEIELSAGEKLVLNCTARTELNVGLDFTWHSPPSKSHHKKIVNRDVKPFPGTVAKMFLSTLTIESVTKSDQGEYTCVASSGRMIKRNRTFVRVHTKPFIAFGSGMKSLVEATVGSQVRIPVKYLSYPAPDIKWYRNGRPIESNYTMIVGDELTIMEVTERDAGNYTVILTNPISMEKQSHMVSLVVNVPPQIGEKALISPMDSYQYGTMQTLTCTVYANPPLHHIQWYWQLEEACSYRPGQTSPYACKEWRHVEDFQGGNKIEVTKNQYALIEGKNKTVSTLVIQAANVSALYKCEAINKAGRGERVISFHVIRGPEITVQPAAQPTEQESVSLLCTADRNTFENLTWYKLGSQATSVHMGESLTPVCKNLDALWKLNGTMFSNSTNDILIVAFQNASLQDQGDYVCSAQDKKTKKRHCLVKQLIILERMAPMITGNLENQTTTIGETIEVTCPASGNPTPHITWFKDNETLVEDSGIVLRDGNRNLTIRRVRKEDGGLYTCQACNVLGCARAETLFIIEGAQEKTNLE
PROPERTY: Binding to 1 nM Flk-1, % (%)
Report the value in % with no unit label.

Reference set, count: 4
>>> quantitative_result("A3 (designed binder, 10Fn3 clone, Del 1-8) EVVAATPTSLLISWRHPHFPTRYYRITYGETGGNSPVQEFTVPLQPPTATISGLKPGVDYTITGYAVTDGWNGKMLSVPISINYRT")
7
>>> quantitative_result("E22 (designed binder, 10Fn3 clone, Del 1-8) EVVAATPTSLLISWRHPHFPTRYYRITYGETGGNSPVQEFTVPLQPPTATISGLKPGVDYTITGYAVTLGRNDRELLTPISINYRT")
3
>>> quantitative_result("G2 (designed binder, 10Fn3 clone, Del 1-8) EVVAATPTSLLISWRHPHFPTRYYRITYGETGGNSPVQEFTVPLQPPTATISGLKPGVDYTITGYAVTLERNNRELLTPISINYRT")
9
>>> quantitative_result("D7 (designed binder, 10Fn3 clone, Del 1-8) EVVAATPTSLLISWRHPHFPTRYYRITYGETGGNSPVQEFTVPLQPPTATISGLKPGVDYTITGYAVTVERNGKVLMTPISINYRT")
27

Then this binder:
### Prompt Item under review: A9 (designed binder, 10Fn3 clone, Del 1-8) EVVAATPTSLLISWRHPHFPTRYYRITYGETGGNSPVQEFTVPLQPPTATISGLKPGVDYTITGYAVTEGWNDRELFVPISINYRT . Reported Binding to 1 nM Flk-1, %?
### Response 4
